B1: glmS ribozyme (parent)
chain: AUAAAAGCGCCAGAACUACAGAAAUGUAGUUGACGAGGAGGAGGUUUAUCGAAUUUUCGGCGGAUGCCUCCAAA

Variants of: B1
test-method-notes: self-cleavage kobs at 40 uM GlcN6P; higher = faster cleavage; RNA array
experimental-conditions: with glucosamine-6-phosphate
This sample holds only a part of the variants without activity.
For each record, write down the corresponding self-cleavage kobs at 40 uM GlcN6P.

Worked examples follow.
{"residue-sequence": "AUAAAAGCGCCAGAACUACAGAAAUGUAGUUGAAGAUGAGGAGUUUUAUCGAAUUUUCGGCGGAUGCCUCCAAA [C34A G37U G44U]", "measured-quantity": "self-cleavage kobs at 40 uM GlcN6P", "recorded-measurement": "< 1e-05 s⁻¹"}
{"residue-sequence": "AUAAAAGCGCCAGAACUACAGAAAUGUAGUUGACGAGUAGGAGGUGUAUCGAAUUUUCGGCGGAUGCCUCCAAA [G38U U46G]", "measured-quantity": "self-cleavage kobs at 40 uM GlcN6P", "recorded-measurement": "< 1e-05 s⁻¹"}

List reported self-cleavage kobs at 40 uM GlcN6P for each of these variants:
1. AUAAAGGCACCAGAACUACAGAAAUGUAGUUGACGAGGAGGAGAUUUAUCGAAUUUUCGGCGGAUGCCUCAAAA [A6G G9A G44A C71A]
2. AUAAAAGCGCCAGAACUACAGAAAUGUAGUUGCCGAGGAGGAGGUUUAUCAAAUUUUCGCCGGAUGCCUCCAAA [A33C G51A G60C]
3. AUAAACGCGCCAGAACUACAGAAAUGUAGUUGACGAGGAGGAGGUUUAUCGUAUUUUCGGCGGAUGGCUCCAAA [A6C A52U C67G]

1. < 1e-05 s⁻¹
2. < 1e-05 s⁻¹
3. < 1e-05 s⁻¹
